Kindly state log10 of EC50 for each of the entries shown.
Target: CFTR in F508del/F508del primary CF hBE cells (Homo sapiens, UniProt P13569, DEL508-508)
Construct: Primary cystic fibrosis human bronchial epithelial (CF hBE) cells were expanded and cultured; endogenous in cells
Sequence (P13569 with tags, fused parts or gaps DEL508-508): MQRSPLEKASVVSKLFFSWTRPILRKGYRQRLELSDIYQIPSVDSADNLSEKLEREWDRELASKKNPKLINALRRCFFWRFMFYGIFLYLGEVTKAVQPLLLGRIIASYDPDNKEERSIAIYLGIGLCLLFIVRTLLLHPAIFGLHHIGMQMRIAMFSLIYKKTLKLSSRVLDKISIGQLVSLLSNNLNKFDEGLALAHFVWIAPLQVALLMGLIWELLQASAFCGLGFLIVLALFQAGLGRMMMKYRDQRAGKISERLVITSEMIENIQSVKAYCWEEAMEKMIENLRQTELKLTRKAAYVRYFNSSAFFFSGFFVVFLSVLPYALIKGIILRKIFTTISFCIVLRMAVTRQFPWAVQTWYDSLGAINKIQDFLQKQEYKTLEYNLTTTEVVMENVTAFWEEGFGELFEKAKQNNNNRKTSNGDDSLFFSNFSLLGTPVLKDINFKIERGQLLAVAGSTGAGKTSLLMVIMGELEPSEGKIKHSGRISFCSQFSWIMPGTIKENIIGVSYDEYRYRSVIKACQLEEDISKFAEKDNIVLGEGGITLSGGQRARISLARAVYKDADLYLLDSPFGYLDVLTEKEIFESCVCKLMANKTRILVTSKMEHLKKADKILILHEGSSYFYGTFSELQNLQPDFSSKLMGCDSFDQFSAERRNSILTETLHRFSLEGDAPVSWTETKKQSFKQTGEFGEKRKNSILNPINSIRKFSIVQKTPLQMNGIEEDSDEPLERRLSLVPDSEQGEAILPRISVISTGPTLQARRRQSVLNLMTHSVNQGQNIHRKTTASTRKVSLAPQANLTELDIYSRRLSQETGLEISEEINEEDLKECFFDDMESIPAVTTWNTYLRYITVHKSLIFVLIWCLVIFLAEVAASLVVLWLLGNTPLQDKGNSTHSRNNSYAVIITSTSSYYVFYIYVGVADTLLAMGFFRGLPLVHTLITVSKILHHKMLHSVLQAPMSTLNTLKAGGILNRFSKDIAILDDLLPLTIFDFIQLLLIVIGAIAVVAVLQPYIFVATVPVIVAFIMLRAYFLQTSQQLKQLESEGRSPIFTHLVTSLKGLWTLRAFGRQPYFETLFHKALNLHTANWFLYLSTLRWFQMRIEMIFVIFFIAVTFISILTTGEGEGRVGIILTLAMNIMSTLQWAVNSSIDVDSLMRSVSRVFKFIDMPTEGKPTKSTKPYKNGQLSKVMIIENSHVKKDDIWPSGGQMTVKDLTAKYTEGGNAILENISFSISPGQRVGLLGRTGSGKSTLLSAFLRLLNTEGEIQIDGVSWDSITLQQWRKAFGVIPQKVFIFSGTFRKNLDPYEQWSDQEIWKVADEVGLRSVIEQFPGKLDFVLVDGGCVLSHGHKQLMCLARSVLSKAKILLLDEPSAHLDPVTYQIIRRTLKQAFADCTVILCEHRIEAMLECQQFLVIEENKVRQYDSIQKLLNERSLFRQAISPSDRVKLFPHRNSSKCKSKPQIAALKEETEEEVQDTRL
Experiment: Ussing chamber electrophysiology assay of CFTR potentiation in F508del/F508del CF bronchial epithelial cells (27° C.)
Field: value | Transform: log10 | Quantity: EC50 | Unit: nM

{"columns": ["Molecule", "log10 of EC50"],
 "data": [
  ["COc1ccc(-c2cn(C(C)c3cnc(-c4ccccc4F)[nH]3)c3ncnc(N)c23)c(F)c1 (stereo not shown) [Example 59]", 1.51]
]}

For each of the molecules below, note its log10 of EC50.
1. N#Cc1c(-c2cnc(C(F)F)nc2)c2c(N)ncnc2n1Cc1cnn(-c2ccccc2F)c1 [Example 30]
2. CCC(c1cn(-c2ccccc2F)nn1)n1cc(-c2cnc(C(F)F)nc2)c2c(N)ncnc21 (single isomer, unassigned; enantiomer 1) [Example 143]
3. CC(=O)c1ccc(-c2cn(C(C)c3cn(-c4ccccc4F)nn3)c3ncnc(N)c23)cc1 (stereo not shown) [Example 96]
4. Nc1ncnc2c1c(-c1ccc(Cl)cc1)cn2Cc1cnc(-c2ccccc2F)[nH]1 [Example 263]

1. 0.31
2. 1.41
3. 2.12
4. 1.33

For each of the molecules below, note its log10 of EC50.
1. CCC(c1cnn(-c2ccccc2F)c1)n1cc(-c2cnc(C(F)(F)F)nc2)c2c(N)ncnc21 (single isomer, unassigned; enantiomer 1) [Example 175]
2. COc1ncncc1-c1cn(C(c2cn(-c3ccccc3F)nn2)C2CC2)c2ncnc(N)c12 (stereo not shown) [Example 243]

0.90
1.98
